Record form. Attribute: pIC50. Fill in for each entry.
- test.target: full length human TPH1 (Homo sapiens, UniProt P17752)
- Construct: To generate the enzyme, full length human TPH1 is cloned into the plasmid pET20b(+); made in house; host or cells: E. coli
- Sequence (P17752 1-444): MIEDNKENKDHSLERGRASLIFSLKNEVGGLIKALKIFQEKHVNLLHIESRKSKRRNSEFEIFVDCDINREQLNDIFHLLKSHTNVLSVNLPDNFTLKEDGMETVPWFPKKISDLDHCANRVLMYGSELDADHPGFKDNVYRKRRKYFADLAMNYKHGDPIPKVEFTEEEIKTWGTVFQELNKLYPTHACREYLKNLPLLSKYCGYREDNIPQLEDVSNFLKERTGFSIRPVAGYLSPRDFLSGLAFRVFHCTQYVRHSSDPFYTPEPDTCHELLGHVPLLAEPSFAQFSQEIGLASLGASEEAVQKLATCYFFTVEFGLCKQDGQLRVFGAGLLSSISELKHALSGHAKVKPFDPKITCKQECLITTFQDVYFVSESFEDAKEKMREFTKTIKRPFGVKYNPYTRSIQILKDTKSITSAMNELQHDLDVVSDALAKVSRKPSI
- assay.details: Biochemical in vitro assay using fluorescence readout (TPH1 enzyme activity)
- applied.conditions: Table 1, mean where determined several times
Answers are plain numbers, as −log10 of the molar value.

compound: CNC(=O)c1ccc(OCC(=O)N2CCc3nc4n(c3C2c2ccc(Cl)cc2F)CCN(C(C)=O)C4)c(Cl)n1 (stereo not shown) [Example 5.1.2]
test.target: full length human TPH1 (Homo sapiens, UniProt P17752)
pIC50: 7.89
--
compound: O=C(COc1ccc(N2CCOCC2)nc1Cl)N1CCc2nc3n(c2C1c1ccc(Cl)cc1F)CCOC3 (stereo not shown) [Example 6.1.1]
test.target: full length human TPH1 (Homo sapiens, UniProt P17752)
pIC50: 8.40
--
compound: CCc1nc(NS(C)(=O)=O)ccc1OCC(=O)N1CCc2nc3n(c2C1c1ncc(C2CC2)cc1F)CCS3 (stereo not shown) [Example 4.2.2]
test.target: full length human TPH1 (Homo sapiens, UniProt P17752)
pIC50: 8.10

Asked: pIC50 for CC(=O)N1CCn2c(nc3c2C(c2sc(C)nc2C)N(C(=O)COc2ccc(-c4ncco4)nc2Cl)CC3)C1 (stereo not shown) [Example 5.17.1] ?
Given back: 7.57
